system: Molm-13; test: cells; format: cell-based; details: Homo sapiens, MOLM-13, 48 h, read-out: IC50 Molm
endpoint-name: IC50 (nM)
# output: bare number, implied unit nM

CC(=O)Oc1ccc(C(=O)Nc2ccc([As]3SCCCS3)cc2)cc1: 1010
O=C(Nc1ccccc1[As]1SCCCS1)c1ccc(F)cc1: 500

Read the next record carefully.
Task item: Need IC50, item COc1cc(C(=O)Nc2ccc([As]3SCCCS3)cc2)cc(OC)c1O
Reply: 600

====

tested on: 4T1; test: cells; type: cell-based; details: Mus musculus, 4T1, 48 h, read-out: IC50 4T1
endpoint-name: pIC50
pIC50 field: float, defined as -log10 of concentration (mol/L).

These solved cases illustrate the format of a correct answer.
CCc1ccc(C(=O)Nc2ccc([As]3SCCCS3)cc2)cc1: 5.85
COc1cc(C(=O)Nc2ccccc2[As]2SCCCS2)cc(OC)c1OC: 6.15
Cc1ccc(C(=O)Nc2ccc([As]3SCCCS3)cc2)cc1: 6.40

Task item: Need pIC50, item O=C(Nc1ccc([As]2SCCCS2)cc1)c1ccc2c(c1)OCO2
Reply: 5.47
